test system: A. fumigatus ATCC 46645; test: Antifungal susceptibility, broth dilution MIC (CLSI M38-A); format: cell-based; settings: Aspergillus fumigatus, ATCC46645; A. fumigatus ATCC 46645; broth dilution, RPMI 1640 with MOPS, 48 hours; read-out: Activity against organisms (MIC50) Afm01
attribute-measured: MIC50

## Input So what does the record say about MIC50 for C#CCOc1ccc(/C=C/C(=O)c2ccc(N3CCN(Cc4ccc(OC)cc4)CC3)cc2)cc1 ?
## Output > 8 µg/mL

## Input For CC/C=C/c1ccc(OCc2cn(CC(O)(Cn3cncn3)c3ccc(F)cc3F)nn2)cc1 (stereo not shown) then?
## Output 8 µg/mL

## Input For OC(Cn1cncn1)(Cn1cncn1)c1ccc(F)cc1F [Fluconazole, reference compound] then?
## Output > 128 µg/mL

## Input For CCCCCCCCCC/C=C/c1ccc(OCc2cn(CC(O)(Cn3cncn3)c3ccc(F)cc3F)nn2)cc1 (stereo not shown) then?
## Output > 2 µg/mL
